Test: Pharmacokinetic study in male CD1 mice
Assay type: in vivo, mouse
Conditions: male, CD1, mouse, plasma, iv, 2 mg/kg, male CD1 mice, 2 mg/kg IV, Mean
OUTCOME_MEASURE: AUC(0-t) (ng·h/mL)

- SMILES_REPR: "COc1cc(-c2cn(C)c(=O)c(C)c2C)cc(OC)c1CN1CC[C@H](N2CCN(c3ccc(N[C@H]4CCC(=O)NC4=O)cc3F)CC2)C(F)(F)C1"
  UNIT_DESCRIPTOR: "ng·h/mL"
  RESULT: 5390

###

Test: Pharmacokinetic study in male Sprague Dawley rats
Format: in vivo, rat
Details: male, Sprague Dawley, rat, plasma, intravenous, 2 mg/kg, 2 mg/kg IV, 4 h; read-out: Plasma Concentration, individual rats

- SMILES_REPR: "COc1cc(-c2cn(C)c(=O)c(C)c2C)cc(OC)c1CN1CC[C@H](N2CCN(c3ccc(N[C@H]4CCC(=O)NC4=O)cc3F)CC2)C(F)(F)C1"
  concentration at 4 h [ng/mL]: 125

src = patent US20240245677A1
